- system.name: human DHODH (Homo sapiens, UniProt Q02127)
- Sequence (Q02127 whole entry): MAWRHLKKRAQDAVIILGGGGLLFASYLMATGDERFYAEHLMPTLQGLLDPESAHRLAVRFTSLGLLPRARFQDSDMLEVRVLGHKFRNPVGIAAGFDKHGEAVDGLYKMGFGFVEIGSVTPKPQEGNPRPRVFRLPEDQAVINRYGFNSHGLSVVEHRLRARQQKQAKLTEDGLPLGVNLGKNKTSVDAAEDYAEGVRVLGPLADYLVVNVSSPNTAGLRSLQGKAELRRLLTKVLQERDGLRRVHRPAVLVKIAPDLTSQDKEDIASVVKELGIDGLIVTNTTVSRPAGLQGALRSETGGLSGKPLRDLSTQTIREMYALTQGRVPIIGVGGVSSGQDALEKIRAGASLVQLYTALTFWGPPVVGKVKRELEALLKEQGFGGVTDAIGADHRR
- method.summary: DHODH Enzymatic Assay
- cond: purified human DHODH; DCIP absorbance, end-point mode
In this section, each of the compounds is paired with its reported EC50.
Just the number please, in nM, no unit attached.

compound | result
CCn1c(CO)nn(-c2nc(O[C@@H](C)C(F)(F)F)c(C(=O)Nc3c(F)cncc3Cl)cc2F)c1=O | 2.3
CCn1c(CO)nn(-c2nc(O[C@@H](C)C(F)(F)F)c(C(=O)Nc3nccc(OC)c3Cl)cc2F)c1=O | 6.62
CCn1c(CF)nn(-c2nc(O[C@@H](C)C(F)(F)F)c(C(=O)Nc3c(C)n[nH]c3Cl)cc2F)c1=O | 0.382
CCn1c(CO)nn(-c2nc(O[C@@H](C)C(F)(F)F)c(C(=O)Nc3cn(C)nc3COC)cc2F)c1=O | 365

Prompt: Would you kindly share the measured EC50 for CCn1c(CO)nn(-c2nc(O[C@@H](C)C(F)(F)F)c(C(=O)Nc3ccnnc3Cl)cc2F)c1=O ?
Completion: 734

----------
- Tested on: MOLM-13 cells
- method.summary: MOLM-13 Cellular Assay
- Assay type: cell-based
- cond: Homo sapiens, 72 hours exposure, cell viability by CellTiter-Glo
value.type: pEC50
Note on pEC50: it is the negative log10 of concentration, concentration in mol/L.

Please review the entries below; each comes with its answer.
compound | system.name | pEC50
CCn1c(CO)nn(-c2nc(O[C@@H](C)C(F)(F)F)c(C(=O)Nc3c(C)nsc3C)cc2F)c1=O [Example 35] | MOLM-13 cells | 8.21
CCn1c(CO)nn(-c2nc(O[C@@H](C)C(F)(F)F)c(C(=O)Nc3c(OC)ccnc3Cl)cc2F)c1=O [Example 44] | MOLM-13 cells | 7.97
CCn1c(CO)nn(-c2nc(O[C@@H](C)C(F)(F)F)c(C(=O)Nc3c(C)ccnc3OC)cc2F)c1=O [Example 68] | MOLM-13 cells | 9.05
CCn1c(CO)nn(-c2nc(O[C@@H](C)C(F)(F)F)c(C(=O)Nc3cnccc3Cl)cc2F)c1=O [Example 27] | MOLM-13 cells | 8.11

Prompt: Can you share its pEC50? I mean this compound: CCn1c(CO)nn(-c2nc(O[C@@H](C)C(F)(F)F)c(C(=O)Nc3cn(C)nc3Cl)cc2F)c1=O [Example 80]
Completion: 7.89

Prompt: What value of pEC50 has been reported for the following compound? CCn1c(CO)nn(-c2nc(O[C@@H](C)C(F)(F)F)c(C(=O)Nc3c(C(F)F)n[nH]c3C)cc2F)c1=O [Example 124]
Completion: 9.43

Prompt: Quick check: pEC50 of CCCn1c(CF)nn(-c2nc(O[C@@H](C)C(F)(F)F)c(C(=O)Nc3c(C)n[nH]c3Cl)cc2F)c1=O [Example 99] ?
Completion: 9.42

Prompt: Which value of pEC50 has been reported for CCn1c(CO)nn(-c2nc(OC(C)C)c(C(=O)Nc3c(F)cccc3Cl)cc2F)c1=O [Example 7] in the records?
Completion: 9.66

Prompt: // query pEC50 value for entry CCn1c(CO)nn(-c2nc(O[C@@H](C)C(F)(F)F)c(C(=O)Nc3cc(OC)ccc3F)cc2F)c1=O [Example 47]
Completion: 8.16

Prompt: So what's the measured pEC50 for this one? CCn1c(CO)nn(-c2nc(O[C@@H](C)C(F)(F)F)c(C(=O)Nc3cc(C#N)ccc3Cl)cc2F)c1=O [Example 74]
Completion: 7.89

Prompt: Recorded pEC50 of CCn1c(CO)nn(-c2nc(O[C@@H](C)C(F)(F)F)c(C(=O)Nc3c(F)cccc3Cl)cc2F)c1=O [Example 1] , please.
Completion: 9.81

Prompt: What does the data say about its pEC50? Entry: CCn1c(CO)nn(-c2nc(OC(C)C)c(C(=O)Nc3c(C)cnc(OC)c3Cl)cc2F)c1=O [Example 88]
Completion: 8.63
